Listing: Human T-cell Binding 2 uM (MFI) of selected binders
systemName: T1, human CD8 alpha (CD8A) on primary human CD8+ T cells (human, UniProt P01732 22-235)
T1 construct: whole, on cells; also called hCD8A
T1 sequence (P01732 22-235): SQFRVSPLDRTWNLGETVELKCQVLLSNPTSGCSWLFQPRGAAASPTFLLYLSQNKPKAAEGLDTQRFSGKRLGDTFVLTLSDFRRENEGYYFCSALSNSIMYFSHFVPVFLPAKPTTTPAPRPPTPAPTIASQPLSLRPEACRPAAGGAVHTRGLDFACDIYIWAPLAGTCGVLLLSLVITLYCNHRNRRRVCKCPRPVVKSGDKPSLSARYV
assayText: flow cytometry, human CD8+ T cells

binder	Human T-cell Binding 2 uM (MFI)
P283DR9P1364_D8 (designed binder, FN3 domain) LPAPKNLVVSRVTEDSARLSWTAPDAAFDSFQIAYPETPIQGEAIVLTVPGSERSYDLTGLKPGTEYFVIIHGVKGGITSFPLSAIFTT	656 MFI
P283FR9P1366_D7 (designed binder, FN3 domain) LPAPKNLVVSRVTEDSARLSWTAPDAAFDSFSIAYPELPVKGEAIVLTVPGSERSYDLTGLKPGTEYFVVIWGVKGGTYSGPLSAIFTT	7520 MFI
P283ER9P1365_A1 (designed binder, FN3 domain) LPAPKNLVVSRVTEDSARLSWTAPDAAFDSFGIAYVEWWHRGEAISLPVPGSERSYDLTGLKPGTEYNVIITGVKGGIPSHPLGAIFTT	25500 MFI
P283DR9P1364_A4 (designed binder, FN3 domain) LPAPKNLVVSRVTEDSARLSWTAPDAAFDSFYIAYPEWPVQGEAIVLTVPGSERSYDLTGLKPGTEYFVIIYGVKGGDWSEPLSAIFTT	9490 MFI
P283FR9P1366_G8 (designed binder, FN3 domain) LPAPKNLVVSRVTEDSARLSWTAPDAAFDSFDIAYPELPIGGEAIVLTVPGSERSYDLTGLKPGTEYFVVIYGVKGGIHSAPLSAIFTT	6860 MFI
P283FR9P1366_A5 (designed binder, FN3 domain) LPAPKNLVVSRVTEDSARLSWTAPDAAFDSFWIAYPEWPTRGEAIVLTVPGSERSYDLTGLKPGTEYFVVIYGVKGGSPSPPLSAIFTT	27600 MFI
P283DR9P1364_F2 (designed binder, FN3 domain) LPAPKNLVVSRVTEDSARLSWTAPDAAFDSFWIAYPEWPVPGEAIVLTVPGSERSYDLTGLKPGTEYFVIIQGVKGGFGSFPLSAIFTT	39200 MFI
P283GR7P1367_H9 (designed binder, FN3 domain) LPAPKNLVVSRVTEDSARLSWTAPDAAFDSFDIAYPEWPTDGEAIVLTVPGSERSYDLTGLKPGTEYFVVIYGVKGGGRSAPLSAIFTT	1710 MFI
P283DR9P1364_E3 (designed binder, FN3 domain) LPAPKNLVVSRVTEDSARLSWTAPDAAFDSFGIAYPELPIGGEAIVLTVPGSERSYDLTGLKPGTEYFVIIRGVKGGTLSPPLSAIFTT	1280 MFI
P283DR9P1364_B11 (designed binder, FN3 domain) LPAPKNLVVSRVTEDSARLSWTAPDAAFDSFYISYPEWEQLGEAIVLTVPGSERSYDLTGLKPGTEYFVVIYGVKGGALSAPLSAIFTT	4260 MFI
P283FR9P1366_D8 (designed binder, FN3 domain) LPAPKNLVVSRVTEDSARLSWTAPDAAFDSFEIAYPEIPIAGEAIVLTVPGSERSYDLTGLKPGTEYFVIIYGVKGGDWSDPLSAIFTT	3390 MFI
P283BR9P1363_G7 (designed binder, FN3 domain) LPAPKNLVVSRVTEDSARLSWSAKKFPRHFDSFLIQYQESEKVGEAIVLTVPGSERSYDLTGLKPGTEYTVSIYGVDVKWEGNRPVASNPLSAIFTT	4640 MFI
P283ER9P1365_A7 (designed binder, FN3 domain) LPAPKNLVVSRVTEDSARLSWTAPDAAFDSFYIPYWESEVYGEAIALPVPGSERSYDLTGLKPGTEYQVSIIGVKGGVYSQPLAAIFTT	18500 MFI
P283HR7P1368_D2 (designed binder, FN3 domain) LPAPKNLVVSRVTEDSARLSWTAPDAAFNSFGIGYAEPAVTGEAISLSVPGSERSYDLTGLKPGTEYWVVIIGVKGGINSYPLGASFTT	15200 MFI
P283HR7P1368_H1 (designed binder, FN3 domain) LPAPKNLVVSRVTEDSARLSWTAPDAAFDSFGIAYIETARWGEAISLTVPGSERSYDLTGLKPGTEYNVVIIGVKGGTPSHPLGAPFTT	15400 MFI
P283BR9P1363_F4 (designed binder, FN3 domain) LPAPKNLVVSRVTEDSARLSWERIVQTPHFDSFLIQYQESEKVGEAIVLTVPGSERSYDLTGLKPGTEYTVSIYGVDVKWEGNRPVASNPLSAIFTT	11900 MFI
P283DR9P1364_B4 (designed binder, FN3 domain) LPAPKNLVVSRVTEDSARLSWTAPDAAFDSFAISYPEWPPPGEAIVLTVPGSERSYDLTGLKPGTEYWVIILGVKGGDQSWPLSAIFTT	45500 MFI
P283FR9P1366_C4 (designed binder, FN3 domain) LPAPKNLVVSRVTEDSARLSWTAPDAAFDSFNIAYPEWPVRGEAIVLTVPGSERSYDLTGLKPGTEYWVIIIGVKGGEDSWPLSAIFTT	33800 MFI
